Parameter: Potency (cAMP, transient hRXFP1 in HEK293). Scope: all listed entries.
- MEASURED TARGET: T1, human RXFP1 (human, UniProt Q9HBX9 1-757)
- T1 sequence (looked up): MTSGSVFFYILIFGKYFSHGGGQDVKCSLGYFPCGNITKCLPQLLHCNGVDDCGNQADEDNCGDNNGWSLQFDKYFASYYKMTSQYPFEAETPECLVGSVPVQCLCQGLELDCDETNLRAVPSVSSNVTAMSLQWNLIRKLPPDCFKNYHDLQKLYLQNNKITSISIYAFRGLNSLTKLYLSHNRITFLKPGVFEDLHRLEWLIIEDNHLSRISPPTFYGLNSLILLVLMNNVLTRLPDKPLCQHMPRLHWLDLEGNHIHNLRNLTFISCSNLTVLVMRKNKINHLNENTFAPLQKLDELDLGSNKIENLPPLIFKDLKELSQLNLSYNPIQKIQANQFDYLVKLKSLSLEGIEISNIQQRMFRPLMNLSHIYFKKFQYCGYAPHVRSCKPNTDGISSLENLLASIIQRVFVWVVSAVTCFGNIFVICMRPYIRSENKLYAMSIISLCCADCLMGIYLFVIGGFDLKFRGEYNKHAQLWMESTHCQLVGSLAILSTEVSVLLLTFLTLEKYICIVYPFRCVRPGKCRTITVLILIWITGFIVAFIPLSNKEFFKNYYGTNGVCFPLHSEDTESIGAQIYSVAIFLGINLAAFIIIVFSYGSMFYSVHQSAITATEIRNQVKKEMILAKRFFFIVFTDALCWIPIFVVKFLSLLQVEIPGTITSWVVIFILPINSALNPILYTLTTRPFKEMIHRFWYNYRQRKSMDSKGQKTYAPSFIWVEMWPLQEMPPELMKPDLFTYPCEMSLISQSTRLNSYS
- TEST DESCRIPTION: cell-based or functional assay
Give just the number in nM; leave the unit off.

The examples below pair each entry with its known result.
>  <BINDER>
SEQ ID NO: 131 (Fc fusion) DKTHTCPPCPAPEAAGGPSVFLFPPKPKDTLMISRTPEVTCVVVDVSHEDPEVKFNWYVDGVEVHNAKTKPREEQYNSTYRVVSVLTVLHQDWLNGKEYKCKVSNKALAAPIEKTISKAKGQPREPQVYTLPPSRDELTKNQVSLTCLVKGFYPSDIAVEWESNGQPENNYKTTPPVLDSDGSFFLYSKLTVDKSRWQQGNVFSCSVLHEALHSHYTQKSLSLSPGEGGSDSYQEEVIKLCGRELVRAQIAICGKSTGGEGSGGEGSGGGRQLYSALANKCCYVGCTKRSLAQFC

>  <READING>
16.4

$$$$
>  <BINDER>
SEQ ID NO: 120 (Fc fusion) DKTHTCPPCPAPEAAGGPSVFLFPPKPKDTLMISRTPEVTCVVVDVSHEDPEVKFNWYVDGVEVHNAKTKPREEQYNSTYRVVSVLTVLHQDWLNGKEYKCKVSNKALAAPIEKTISKAKGQPREPQVYTLPPSRDELTKNQVSLTCLVKGFYPSDIAVEWESNGQPENNYKTTPPVLDSDGSFFLYSKLTVDKSRWQQGNVFSCSVLHEALHSHYTQKSLSLSPGKGGSDSFQEEVIKLCGRELVRAQIAICGKSTASDAAGAEAEAGARQLYSALANKCCHVGCTKRSLAQFC

>  <READING>
4.8

$$$$

Need Potency (cAMP, transient hRXFP1 in HEK293) of SEQ ID NO: 124 (Fc fusion) DKTHTCPPCPAPEAAGGPSVFLFPPKPKDTLMISRTPEVTCVVVDVSHEDPEVKFNWYVDGVEVHNAKTKPREEQYNSTYRVVSVLTVLHQDWLNGKEYKCKVSNKALAAPIEKTISKAKGQPREPQVYTLPPSRDELTKNQVSLTCLVKGFYPSDIAVEWESNGQPENNYKTTPPVLDSDGSFFLYSKLTVDKSRWQQGNVFSCSVLHEALHSHYTQKSLSLSPGKGGSDSWQEEVIKLCGRELVRAQIAICGKSTASDAAGAEAEAGARQLYSALANKCCLVGCTKRSLAQFC , thanks.
20.8

For the binder SEQ ID NO: 132 (Fc fusion) DKTHTCPPCPAPEAAGGPSVFLFPPKPKDTLMISRTPEVTCVVVDVSHEDPEVKFNWYVDGVEVHNAKTKPREEQYNSTYRVVSVLTVLHQDWLNGKEYKCKVSNKALAAPIEKTISKAKGQPREPQVYTLPPSRDELTKNQVSLTCLVKGFYPSDIAVEWESNGQPENNYKTTPPVLDSDGSFFLYSKLTVDKSRWQQGNVFSCSVLHEALHSHYTQKSLSLSPGEGGSDSYQEEVIKLCGRELVRAQIAICGKSTGGEGSGGEGSGGGRQLYSALANKCCKVGCTKRSLAQFC , what Potency (cAMP, transient hRXFP1 in HEK293) is on record?
11.2
